Tested on: HEK293 cells overexpressing APOL1 G2
Test: APOL1 G2 HEK293 cell rescue assay (reversal of cell death caused by overexpression of APOL1)
Assay type: cell-based
Conditions: Homo sapiens, HEK293, HEK293 overexpressing APOL1 G2; geometric mean of at least 2 assay runs; † = single assay run
Note to self: class labels come from recorded EC50, ranges listed here: L (below 30 nM), M (30 nM to below 80 nM), H (80 nM or more)

INSERT INTO assay_data (molecule, qualitative_label) VALUES
  ('CC1(O)CC2(CN(c3ncc(OCCN4CCC5(CC4)C(=O)Nc4ccc(Cl)cc45)cn3)C2)C1', 'L'),
  ('CC(=O)N1CCCc2cc(OCCN3CCC4(CC3)C(=O)Nc3ccc(C#N)cc34)ccc21', 'H'),
  ('CS(=O)(=O)c1ccc(OCCN2CCC3(CC2)C(=O)N(CCO)c2ccc(C#N)cc23)cc1C(F)F', 'H'),
  ('O=C1Nc2ccc(Cl)cc2C12CCN(CCOc1ccc(C3CCCS3(=O)=O)cc1)CC2 (centres unmarked) [Compound 175]', 'M'),
  ('C[C@]1(O)C[C@@H](n2c(=O)ccc3cc(OCCN4CCC5(CC4)C(=O)Nc4ccc(Cl)cc45)cnc32)C1', 'L'),
  ('CS(=O)(=O)c1ccc(OCCN2CCC3(CC2)C(=O)Nc2ccc(Cl)cc23)cc1C1COC1', 'H'),
  ('CS(=O)(=O)C1(c2ccc(OCCN3CCC4(CC3)C(=O)N(CC(F)(F)F)c3ccc(C#N)cc34)cc2)COC1', 'H'),
  ('CC1(O)CC(CN2C(=O)CCc3cc(OCCN4CCC5(CC4)C(=O)Nc4ccc(Cl)cc45)cnc32)C1 (centres unmarked)', 'L'),
  ('C[C@]1(O)C[C@@H](n2cnc3cc(OCCN4CCC5(CC4)C(=O)Nc4ccc(C(F)F)cc45)cc(C(F)(F)F)c32)C1', 'L'),
  ('[2H]C([2H])([2H])N1C(=O)C2(CCN(CCOc3cc(F)c4c(c3)CCNS4(=O)=O)CC2)c2cc(Cl)ccc21', 'M'),
  ('CS(=O)(=O)C1CN(C(=O)c2ccc(OCCN3CCC4(CC3)C(=O)Nc3ccc(Cl)cc34)cc2F)C1', 'M');
